Test system: L1210 leukemia ip in BDF1 mice, survival T/C
experiment.notes: NCI In Vivo Anticancer Drug Screen. Data for tumor model L1210 Leukemia (intraperitoneal) in B6D2F1 (BDF1) mice
experimental.parameters: endpoint: mean survival time; dose: 25.0 mg/kg/injection; schedule: Q04DX002 (ip); vehicle: saline; higher = longer survival
Inconclusive results and toxic doses are left out.
readout.kind: T/C

Example entries and their recorded answers appear below.
CC(=O)OC1C=C2CCC3C(CC(=O)C4(C)C3CC3OC34C(C)=O)C2(C)CC1 (centres undefined) :: 102 % of control
CC1=NCCN1CCN=C(N)CCl :: 91 % of control
CNCC1OC(n2cc(C)c(=O)[nH]c2=O)CC1O (centres undefined) :: 108 % of control

Could you now consider this next molecule?
Reported T/C ( CCCCCN1CCCC(OC(=O)N(C)C)C1 (centres undefined) ) = 106 % of control

====

Tested on: L1210 leukemia ip in BDF1 mice, survival T/C
experiment.notes: NCI In Vivo Anticancer Drug Screen. Data for tumor model L1210 Leukemia (intraperitoneal) in B6D2F1 (BDF1) mice
experimental.parameters: endpoint: mean survival time; dose: 400.0 mg/kg/injection; schedule: Q01DX001 (ip); vehicle: carboxymethylcellulose (CMC); higher = longer survival
Toxic doses and inconclusive results are not listed.
readout.kind: T/C

The following compounds have reported results that may help.
N#Cc1ccccc1-c1ccccc1C#N :: 107 % of control
O=C(C(=O)c1ccc(Cl)cc1)c1ccc(Cl)cc1 :: 92 % of control
Nc1ccc2c(c1)-c1ccc(F)cc1C2 :: 94 % of control

Please give T/C, item by item, for the list that follows.
1. CCCCCCCCCCCCCCCCCC1=Nc2cc(C)c(C)cc2NC(=O)C1
2. OCn1nc(Cl)c2cc(Cl)ccc21

output:
1. 86 % of control
2. 100 % of control

For each of the compounds below, state T/C.
1. COc1ccc(CN2CCCN(Cc3ccc(OC)cc3OC)C2c2ccc(OC)cc2OC)c(OC)c1
2. O=C1c2ccccc2-c2cc(F)cc(F)c21
3. CCCCCCC1CC2CCCCC2CC1CCCC (stereo unspecified)
4. CC(Nc1nc(SCc2ccccc2)c2ncn(C3OC(CO)C(O)C3O)c2n1)C(=O)O (stereo unspecified)

output:
["98 % of control", "102 % of control", "94 % of control", "104 % of control"]

// each listed compound needs a value for T/C
1. CC(C)(C)O[Si](C)(C)CCl
2. CCOC(=O)NC(NC(=O)OCC)C(NC(=O)OCC)NC(=O)OCC
3. COc1ccc(CN2CCCN(Cc3ccc(OC)cc3OC)C2c2ccc(N(CCCl)CCCl)cc2F)c(OC)c1
4. O=C1c2ccccc2-c2ccc([N+](=O)[O-])c(Br)c21
5. COc1ccccc1/C=N\NC(=O)c1ccco1
6. CC(C)=CCC/C(C)=C/CO
7. C(COC1CC2CC1C1C2CC2OC21)OC1CC2CC1C1C2CC2OC21 (stereo unspecified)

output:
92 % of control
91 % of control
106 % of control
102 % of control
95 % of control
101 % of control
102 % of control

Below are 7 compounds. Give each one its T/C.
1. O=S(c1ccccc1)c1ccc2cccccc1-2 (stereo unspecified)
2. COc1ccccc1/C=C1\SC(=S)NC1=O
3. CC(=O)Oc1ccc(Br)cc1C=O
4. OCC(O)C(O)/C=N/N(Cc1ccccc1)c1ccccc1 (stereo unspecified)
5. COc1cc2c(cc1OC)C1C(C)c3ccc(OC)c(OC)c3CN1CC2 (stereo unspecified)
6. C=CC1CN2CCC1CC2C(OC(C)=O)c1ccnc2ccc(OC)cc12 (stereo unspecified)
7. COc1ccc(CNCCC(=O)O)cc1OC

output:
1: 100 % of control; 2: 90 % of control; 3: 103 % of control; 4: 97 % of control; 5: 96 % of control; 6: 92 % of control; 7: 105 % of control

Just for reference, PubChem BioAssay AID248 is where these values come from.
